The following molecules are shown together with reported log10(Ki) values.
# study target: Adrenergic receptor alpha-2 (Rattus norvegicus, UniProt P22086+P19328+P22909)
# experimental details: Displacement of [3H]rauwolscine from Alpha-2 adrenergic receptor of rat brain membranes
# Assay type: cell membranes, Membrane
Hi team, quick reminder: these entries are log10 of Ki (nM).

molecule: Cc1cccc2c1CCCC2c1c[nH]cn1 (stereo unspecified)
experimental result: 1.98
//
molecule: COc1ccc2c(c1)C(c1c[nH]cn1)CCC2 (stereo unspecified)
experimental result: 2.30
//
molecule: COc1cccc2c1CCCC2c1c[nH]cn1 (stereo unspecified)
experimental result: 1.99
//
molecule: Oc1cccc2c1CCCC2c1c[nH]cn1 (stereo unspecified)
experimental result: 1.80
//
molecule: COc1ccc2c(c1)C(c1c[nH]cn1)=CCC2
experimental result: 3.20

Field: next molecule
Recorded log10(Ki) of COc1ccc2c(c1)CCCC2c1c[nH]cn1 (stereo unspecified) , please.
2.23
